Biological target: 5-hydroxytryptamine receptor 2A (Homo sapiens, UniProt P28223)
Sequence (P28223 whole entry): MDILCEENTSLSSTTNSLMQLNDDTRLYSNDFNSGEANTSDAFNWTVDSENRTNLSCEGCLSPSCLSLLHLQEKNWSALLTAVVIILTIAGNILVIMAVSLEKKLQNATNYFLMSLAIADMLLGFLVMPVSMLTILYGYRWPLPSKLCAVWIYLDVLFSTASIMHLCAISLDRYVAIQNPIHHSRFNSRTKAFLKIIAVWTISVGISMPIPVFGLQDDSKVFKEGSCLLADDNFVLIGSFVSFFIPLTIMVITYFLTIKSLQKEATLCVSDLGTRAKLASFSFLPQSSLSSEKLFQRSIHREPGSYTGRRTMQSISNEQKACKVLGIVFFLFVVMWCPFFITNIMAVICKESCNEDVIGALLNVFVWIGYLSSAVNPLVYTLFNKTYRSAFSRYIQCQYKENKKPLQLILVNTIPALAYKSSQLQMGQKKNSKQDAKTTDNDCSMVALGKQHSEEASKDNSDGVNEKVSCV
Assay: Antagonist activity at 5-HT2A receptor (unknown origin) incubated for 60 mins followed by 10 mins incubation in dark at room temperature by FLIPR method
READOUT LABEL: IC50 (µM)

INSERT INTO results (entry_smiles, readout_label, value_units, value_measured) VALUES
  ('COc1cc2c(cc1OC)-c1c(OC)c(OCc3ccc(Br)cc3)cc3c1[C@H](C2)N(C)CC3', 'IC50', 'µM', 0.162),
  ('COc1cc2c(cc1OC)-c1c(OC)c(OCc3ccccc3)cc3c1[C@H](C2)N(C)CC3', 'IC50', 'µM', 0.137);
